- METHOD: compound effects on differentiated 3T3-L1 adipocyte viability – cell-based, 3T3-L1 adipocytes, calcein-AM fluorescence, 48 h, basal, profiling panel (AID 1163); further: test concentration not given here
- SETTINGS: 3T3-L1 adipocytes viability, higher = more signal
# reported z-score; entries follow
Hey, just send me the number, nothing else.

Worked examples, 2 molecules total:
1. CS(=O)(=O)CCOC(=O)C1=CC(CCCO)=CC(c2ccc(CN3CCCC3)cc2)N(Cc2sc3ccccc3c2Cl)C=C1C(=O)OCCS(C)(=O)=O (centres undefined)
0.958
2. CCCNC(=O)[C@@H]1c2ccccc2C(=O)N(Cc2ccc(OC(F)(F)F)cc2)[C@H]1c1ccc(CO)cc1
0.385

Now take the following molecule into account.
Item: `COCCOC(=O)N1C(=O)[C@@]2(c3ccccc31)[C@H](C(=O)NC[C@H](O)c1ccccc1)[C@H]1C(=O)O[C@H](c3ccccc3)[C@H](c3ccccc3)N1[C@@H]2c1ccc(O)cc1` | z-score: 2.18

###

- TARGET ENTITY: Focal adhesion kinase 1 (Homo sapiens) (UniProt Q05397)
- Sequence (Q05397 whole entry, looked up): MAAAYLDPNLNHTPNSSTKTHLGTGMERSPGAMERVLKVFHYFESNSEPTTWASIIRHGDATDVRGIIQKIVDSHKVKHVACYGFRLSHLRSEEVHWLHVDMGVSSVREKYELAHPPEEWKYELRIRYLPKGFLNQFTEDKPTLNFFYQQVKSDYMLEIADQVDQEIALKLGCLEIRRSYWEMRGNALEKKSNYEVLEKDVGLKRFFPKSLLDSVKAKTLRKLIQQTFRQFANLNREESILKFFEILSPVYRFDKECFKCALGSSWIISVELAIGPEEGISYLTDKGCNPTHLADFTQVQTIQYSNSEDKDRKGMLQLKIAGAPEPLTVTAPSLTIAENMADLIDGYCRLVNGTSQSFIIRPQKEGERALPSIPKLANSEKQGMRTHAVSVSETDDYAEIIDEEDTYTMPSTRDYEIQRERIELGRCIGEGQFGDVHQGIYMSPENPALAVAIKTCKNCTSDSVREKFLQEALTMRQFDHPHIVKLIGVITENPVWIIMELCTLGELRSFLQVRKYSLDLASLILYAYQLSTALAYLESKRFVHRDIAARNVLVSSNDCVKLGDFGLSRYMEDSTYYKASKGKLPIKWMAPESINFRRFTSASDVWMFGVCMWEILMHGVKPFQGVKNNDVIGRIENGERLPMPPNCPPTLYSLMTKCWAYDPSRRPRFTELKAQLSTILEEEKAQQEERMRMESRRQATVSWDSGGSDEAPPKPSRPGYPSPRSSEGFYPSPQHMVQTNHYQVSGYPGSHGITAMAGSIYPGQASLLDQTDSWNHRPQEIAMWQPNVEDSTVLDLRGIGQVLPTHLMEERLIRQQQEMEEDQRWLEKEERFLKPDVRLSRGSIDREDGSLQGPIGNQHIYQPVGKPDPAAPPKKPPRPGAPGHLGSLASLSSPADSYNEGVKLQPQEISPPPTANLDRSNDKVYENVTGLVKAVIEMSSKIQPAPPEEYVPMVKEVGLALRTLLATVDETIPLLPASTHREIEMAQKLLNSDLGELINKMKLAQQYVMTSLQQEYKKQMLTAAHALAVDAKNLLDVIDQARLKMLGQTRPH
- METHOD: PTK2 protein binding on printed compound slides – biochemical, small-molecule microarray, 635/667 nm fluorescence, BSA, DTT, primary screen (AID 1130);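 further: composite of spot emission at 667 nm and signal to noise over triplicate slides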
- SETTINGS: 635 nm fluorescence, higher = more signal
MEASURED ATTRIBUTE: composite z-score

1) C#CCN(Cc1ccccc1Br)[C@H](/C=C/c1ccccc1)[C@@H](O)Cc1ccccc1
-0.082
2) Cc1ccccc1C(O)C1C=CC2C(=O)NC(=O)C2N1Nc1ccccn1 (stereo not given)
0.0312
3) CCCC[C@@H](O)C1=C(COc2ccccc2)C[C@H]2C(=O)N(Cc3ccccc3)C(=O)[C@H]2[C@H]1CO
-0.0235

Recorded composite z-score for `COC(=O)[C@@]1(Cc2ccccc2)[C@H]2c3cc(C(=O)N(C)C)n(Cc4ccc(C)o4)c3C[C@H]2CN1C(=O)c1ccccc1` on Focal adhesion kinase 1 (Homo sapiens) (UniProt Q05397) was 1.73

Param item: `C=CCOC(=O)[C@@]1(Cc2ccccc2)C[C@H]2CO[C@H](c3ccc(OC)cc3)N2C1=O` ; param system: Focal adhesion kinase 1 (Homo sapiens) (UniProt Q05397); output composite z-score: 0.575

Entry `COc1ccc([Si](C)(C)[C@@H]2[C@@H](CC(=O)N3CCC[C@H]3CO)O[C@]3(C(=O)N(Cc4cccc(N5C(=O)COc6ccccc65)c4)c4ccccc43)[C@H]2C)cc1` , Focal adhesion kinase 1 (Homo sapiens) (UniProt Q05397) data, composite z-score value: 0.438

Reported Focal adhesion kinase 1 (Homo sapiens) (UniProt Q05397) composite z-score for item C=CCC(OC(C)=O)[C@@H]1[C@@H](N(Cc2cccc3ccccc23)C(=O)Cc2ccc(OC)cc2)c2cc(OCCCO)ccc2N1C(=O)c1ccc(-c2ccccc2)cc1 (stereo not given in full) was 0.0862

Fill in: Focal adhesion kinase 1 (Homo sapiens) (UniProt Q05397) composite z-score for `Cc1ccc(S[C@]2(C(=O)NCC(F)(F)F)CC(=O)N(Cc3cc(C(F)(F)F)cc(C(F)(F)F)c3)[C@@H]2c2ccc(CO)cc2I)cc1` = -0.301

The value of composite z-score recorded for `CC(C)N1C(=O)C[C@@](C(=O)NC2CC2)(c2ccc([N+](=O)[O-])cc2)[C@H]1c1ccc(CO)cc1` when tested on Focal adhesion kinase 1 (Homo sapiens) (UniProt Q05397) reads 0.403

Item `C=CCN1Cc2ccccc2[C@@H]2OC(c3ccc(OCCCO)cc3)=N[C@]2(CC=C)C1=O` was tested on Focal adhesion kinase 1 (Homo sapiens) (UniProt Q05397); the reported composite z-score is 0.68

Case `CN(C)C(=O)[C@]1(CCC(=O)OC(C)(C)C)N=C(c2ccc(OCCCO)cc2)O[C@@H]1c1ccccc1CN=[N+]=[N-]` , Focal adhesion kinase 1 (Homo sapiens) (UniProt Q05397), composite z-score recorded as 0.706

Entry `CCOC(=O)C1=C[C@@H](C(C)C)N(S(=O)(=O)c2ccc(C)cc2)[C@H]1c1ccc(C(F)(F)F)cc1` ; assay system Focal adhesion kinase 1 (Homo sapiens) (UniProt Q05397); composite z-score recorded at 0.224

With Focal adhesion kinase 1 (Homo sapiens) (UniProt Q05397) as the test system, `COc1ccc([Si](C)(C)[C@@H]2[C@@H](CC(=O)N(CCO)Cc3ccccc3)O[C@]3(C(=O)N(Cc4cccc(N5CCCCC5=O)c4)c4ccccc43)[C@H]2C)cc1` showed composite z-score of 0.518

GET /values?item= `CC1=C2[C@@H](CCc3ccccc3)OB(O)C[C@@H]2[C@@H]2C(=O)N(C)C(=O)[C@@H]2C1` &system= Focal adhesion kinase 1 (Homo sapiens) (UniProt Q05397) returns composite z-score: 0.0327

Sample `COCCOC(=O)N1C(=O)[C@@]2(c3ccccc31)[C@H](c1ccc(O)cc1)N1[C@H](c3ccccc3)[C@H](c3ccccc3)OC(=O)[C@H]1[C@@H]2C(=O)N1CCN(c2ncccn2)CC1` , system: Focal adhesion kinase 1 (Homo sapiens) (UniProt Q05397). Its composite z-score is 0.666

###

- TARGET ENTITY: NADPH oxidase 4 (Homo sapiens)
- METHOD: compounds shifting NOX4 Amplex Red fluorescence – cell-based, HEK293-NOX4, tetracycline-induced, NOX inhibitor project, primary screen (AID 1160)
- SETTINGS: HEK293-NOX4, Amplex Red H2O2 fluorescence, 45 min; higher = more signal, called active from +8 up or from −8 down
MEASURED ATTRIBUTE: z-score
Format: numeric value only, no unit, no commentary.

For orientation, consider the following solved cases.
1. Cc1cc(C)c(C(O)C2C=CC3C(=O)N(c4ccccc4)C(=O)C3N2Nc2ccccc2F)c(C)c1 (centres undefined)
-0.918
2. CC(=O)NCCCC[C@@H]1NC(=O)[C@@H]2C[C@H](C(=O)NCCCCCN)[C@H](c3ccc(O)cc3)N2C1=O
0.0542
3. OCCCC1=CC(c2ccc(CN3CCCC3)cc2)N(Cc2cc3c(cc2Br)OCO3)CC1 (centres undefined)
-1.21

# context switch: different compound, same z-score
Looking up [N-]=[N+]=NCc1ccccc1[C@H]1OC(c2ccc(OCCCO)cc2)=N[C@@]1(Cc1ccccc1N=[N+]=[N-])C(=O)NCC(O)CO (some centres undefined) , I found its z-score recorded as -0.592

###

Quick reference: z-score of the listed items.
- METHOD: compound effects on multiple myeloma cell viability – MM1S, calcein-AM fluorescence, 48 h, basal, profiling panel (AID 1165);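 further: viability of MM1S multiple myeloma cells under basal unstimulated conditions; test concentration not given here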
- SETTINGS: higher = more signal
Reply with just the number.

Guide cases for z-score, answers given:
1) C=CCC(OC(C)=O)[C@@H]1[C@@H](N(Cc2cccc3ccccc23)C(=O)Cc2ccc(OC)cc2)c2cc(OCCCO)ccc2N1C(=O)c1ccc(-c2ccccc2)cc1 (some centres undefined)
-0.47
2) NC(=O)[C@H]1[C@@H]2C(=O)O[C@@H](c3ccccc3)[C@@H](c3ccccc3)N2[C@@H](c2ccc(OCCO)cc2)[C@]12C(=O)Nc1ccc(C#CCCO)cc12
0.227
3) CC(C)N1CC=CC23O[C@@H]4C=CCCOC(=O)C4[C@H]2C(=O)N(CCCO)[C@@H]3C1=O (some centres undefined)
0.756

# next compound below
So, `O=C1C[C@]2(c3ccc([N+](=O)[O-])cc3)C(=O)N(C3CC3)c3cc(CO)ccc3[C@H]2N1CC12CC3CC(CC(C3)C1)C2` ? Its z-score was 0.352

###

- METHOD: plasmodial surface anion channel blockers, osmotic lysis – cell-based, P. falciparum Indochina, OD700, 2 h, primary screen (AID 1155);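 further: lysis reports solute entry through the parasite surface anion channel PSAC; channel blockers reduce lysis of infected cells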
- SETTINGS: P. falciparum Indochina infected erythrocytes, higher = more signal, called active from +8 up or from −8 down
MEASURED ATTRIBUTE: z-score
Answer with the value's number alone.

Examples with answers:
1. CCCCC(O)C1C=CC2C(=O)N(C)C(=O)C2N1N(c1ccccc1)c1ccccc1 (stereo not drawn)
1
2. COCCOC(=O)N1C(=O)[C@@]2(c3cc(C#CC4(O)CCCCCC4)ccc31)[C@H](C(=O)N1CCc3cc(OC)c(OC)cc3C1)[C@H]1C(=O)O[C@H](c3ccccc3)[C@H](c3ccccc3)N1[C@@H]2c1ccc(OCCO)cc1
2.64

Value of z-score reported for the molecule CC(C)(C)OC(=O)CC[C@@]1(C(=O)NCC(O)CO)N=C(c2ccc(OCCCO)cc2)O[C@@H]1c1ccccc1CN=[N+]=[N-] (stereo partly drawn) is 5.67

###

- METHOD: growth modulation of vineyard yeast isolate – strain RM11-1a, OD600, basal, 24 h, primary screen (AID 1177);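 further: cultures grown under basal conditions with no added stressor; test concentration not given here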
- SETTINGS: S. cerevisiae RM11-1a growth, OD600, 24 h; higher = more signal, called active from +8 up or from −8 down
Heads up, the class ranges for z-score are label 0 (below -0.02), label 1 (-0.02 to below 0.2), label 2 (0.2 or more)

For this molecule, which bin applies? `COc1ccc(C#Cc2ccc3c(c2)[C@]2(C(=O)N3)[C@H](C(=O)O)[C@H]3C(=O)O[C@H](c4ccccc4)[C@H](c4ccccc4)N3[C@@H]2c2ccc(O)cc2)cc1`
label 1
